hMAO-B inhibition (IC50 hMAO-B): recorded values
- system.tested: hMAO-B (Homo sapiens)
- Construct: purchased Sigma M7441
- Sequence (P27338 whole entry): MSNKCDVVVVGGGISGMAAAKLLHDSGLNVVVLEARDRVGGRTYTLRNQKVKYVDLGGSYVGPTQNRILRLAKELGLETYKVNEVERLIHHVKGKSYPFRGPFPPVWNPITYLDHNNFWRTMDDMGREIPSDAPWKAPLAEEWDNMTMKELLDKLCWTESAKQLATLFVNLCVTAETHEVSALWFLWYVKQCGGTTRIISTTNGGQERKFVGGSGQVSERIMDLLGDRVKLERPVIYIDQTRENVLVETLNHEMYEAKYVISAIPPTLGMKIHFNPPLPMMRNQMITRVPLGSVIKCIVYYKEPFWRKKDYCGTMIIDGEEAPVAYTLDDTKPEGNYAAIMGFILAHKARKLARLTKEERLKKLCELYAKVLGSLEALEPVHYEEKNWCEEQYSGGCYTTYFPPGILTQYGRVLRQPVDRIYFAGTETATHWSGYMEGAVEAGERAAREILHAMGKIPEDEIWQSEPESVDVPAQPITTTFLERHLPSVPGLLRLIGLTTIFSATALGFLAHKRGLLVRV
- measurement.notes: MAO-B inhibition assay (Amplex Red, horseradish peroxidase-coupled)
- Type: biochemical
- test.context: at 10 μM
- Experimental: MAO-A (Sigma M7316) and MAO-B (Sigma M7441) inhibition assays were conducted in 96-well micro-plates according to the method described by Zhou et al. [Analytical Biochemistry 253, 169-174, 1997]. […] Enzyme activities were determined by measuring absorbance at 570 nm (SpectralMax Plate reader), absorbance of oxidized Amplex Red generated by this horseradish peroxidase-coupled reaction. […]
# value in %; strip the unit string

[[record]]
compound = "O=c1c(-c2ccc(O)cc2)coc2cc(OC[C@H](O)CNCc3cccc(C(F)(F)F)c3)ccc12 [PT-53]"
quantity_unit = "%"
reported_measurement = 19

[[record]]
compound = "O=c1c(-c2ccc(O)cc2)coc2cc(OCCCc3ccccc3)ccc12 [PT-57]"
quantity_unit = "%"
reported_measurement = 27

[[record]]
compound = "O=c1c(-c2ccc(O)cc2)coc2cc(OC[C@H](O)CNCc3cc(F)cc(F)c3)ccc12 [PT-55]"
quantity_unit = "%"
reported_measurement = 14

[[record]]
compound = "O=c1c(-c2ccc(O)cc2)coc2cc(OCc3cc(-c4cccc(C(F)(F)F)c4)on3)ccc12 [PT-45]"
quantity_unit = "%"
reported_measurement = 7


# context switch: different compound, same hMAO-B inhibition (IC50 hMAO-B)
Simply: O=c1c(-c2ccc(O)cc2)coc2cc(OCCc3cccc(C(F)(F)F)c3)ccc12 [PT-59] , hMAO-B (Homo sapiens), hMAO-B inhibition (IC50 hMAO-B) = 24
